Papp values for the compounds below.
# Test system: Caco-2
# ASSAY INFO: Apparent permeability across human Caco-2 cells
# Format: ADME, cell-based
Form entry: enter the amount, then its unit.

Below are worked cases with known answers.
[[record]]
compound_smiles = "CNCC(=O)N[C@H](c1cc(C)ccc1N1CCN(C(=O)[C@H](C)Cc2ccc(Cl)cc2F)CC1)C(C)C"
property_label = "Papp"
reported_measurement = "8 ×10⁻⁶ cm/s"

[[record]]
compound_smiles = "CNCCN[C@H](c1cccc(F)c1N1CCN(C(=O)[C@H](C)Cc2ccc(Cl)cc2)CC1)C(C)C"
property_label = "Papp"
reported_measurement = "0.4 ×10⁻⁶ cm/s"

[[record]]
compound_smiles = "CNCC(=O)N[C@H](c1cccc(F)c1N1CCN(C(=O)[C@H](C)Cc2ccc(Cl)cc2OC)CC1)C(C)C"
property_label = "Papp"
reported_measurement = "2 ×10⁻⁶ cm/s"

[[record]]
compound_smiles = "COc1cc(Cl)ccc1C[C@@H](C)C(=O)N1CCN(c2ccc(Cl)cc2[C@@H](NC(=O)C2CNC2)C(C)C)CC1"
property_label = "Papp"
reported_measurement = "0.3 ×10⁻⁶ cm/s"


Problem: Please provide the recorded Papp for CNCC(=O)N[C@H](c1cccc(F)c1N1CCN(C(=O)[C@H](C)Cc2ccc(Cl)cc2)CC1)C(C)C , tested on Caco-2.
Solution: 1 ×10⁻⁶ cm/s

Problem: Moving on to the next compound: Cc1ccc(N2CCN(C(=O)[C@H](C)Cc3ccc(Cl)cc3)CC2)c([C@@H](NC(=O)CCN)C(C)C)c1
Solution: 3 ×10⁻⁶ cm/s

Problem: Moving on to the next compound: COc1cc(Cl)ccc1C[C@@H](C)C(=O)N1CCN(c2ccc(Cl)cc2[C@@H](NC(=O)[C@@H](C)N)C(C)C)CC1
Solution: 3 ×10⁻⁶ cm/s

Problem: Moving on to the next compound: CC(C)[C@H](NC(=O)C1CN(C)C1)c1cc(Cl)ccc1N1CCN(C(=O)[C@H](C)Cc2ccc(Cl)cc2)CC1
Solution: 2 ×10⁻⁶ cm/s

Problem: Moving on to the next compound: CC(C)[C@H](NC(=O)CCN(C)C)c1cc(Cl)ccc1N1CCN(C(=O)[C@H](C)Cc2ccc(Cl)cc2)CC1
Solution: 9 ×10⁻⁶ cm/s

Problem: Moving on to the next compound: COc1cc(Cl)ccc1C[C@@H](C)C(=O)N1CCN(c2c(F)cccc2[C@@H](NC(=O)C2CNC2)C(C)C)CC1
Solution: 0.2 ×10⁻⁶ cm/s

Problem: Moving on to the next compound: CNCCN[C@H](c1cc(C)ccc1N1CCN(C(=O)[C@H](C)Cc2ccc(Cl)cc2F)CC1)C(C)C
Solution: 3 ×10⁻⁶ cm/s

Problem: Moving on to the next compound: CNCC(=O)N[C@H](c1cccc(F)c1N1CCN(C(=O)[C@H](C)Cc2ccc(Cl)cc2Cl)CC1)C(C)C
Solution: 2 ×10⁻⁶ cm/s
